Measured IC50 values are reported for all entries that follow.
Molecular target: RalB (Homo sapiens)
Construct: made in house; host or cells: E. coli BL21(DE3)
Assay: Rgl2-mediated guanine nucleotide exchange assay (BODIPY-FL-GDP fluorescence), RalB wild-type
Format: biochemical
Details: IC50 at 24 h (μM) RalB WT, 24 h incubation at 4° C.

# annotated cases, reported IC50 shown
O=S(=O)(F)c1ccc(S(=O)(=O)Nc2cccnc2O)cc1 [Compound 3]; 17 µM
COc1ccc(NS(=O)(=O)c2ccc(S(=O)(=O)F)cc2)cc1 [Compound 9]; 60.3 µM
O=S(=O)(F)c1ccc(S(=O)(=O)Nc2cccc(Cl)n2)cc1 [Compound 5]; 24.4 µM
CS(=O)(=O)c1ccc(NS(=O)(=O)c2ccc(S(=O)(=O)F)cc2)cn1 [Compound 10]; 147 µM
COc1cc(Cl)nc(NS(=O)(=O)c2ccc(S(=O)(=O)F)cc2)c1 [Compound 21]; 24 µM

Q) Fill: IC50 (RalB (Homo sapiens)) for this molecule COc1cc(NS(=O)(=O)c2ccc(S(=O)(=O)F)cc2)ccn1 [Compound 12]
A) 146 µM

Q) Lab note: RalB (Homo sapiens) assay, enter IC50 for CC(C)Oc1cncc(NS(=O)(=O)c2ccc(S(=O)(=O)F)cc2)c1 [Compound 16] here
A) 79.5 µM

Q) Give measured IC50 for COc1cccc(NS(=O)(=O)c2ccc(S(=O)(=O)F)cc2)n1 [Compound 22] (RalB (Homo sapiens)).
A) 64 µM

Q) Report value: IC50, system: RalB (Homo sapiens), molecule: COc1cccc(NS(=O)(=O)c2ccc(S(=O)(=O)F)cc2)c1 [Compound 11]
A) 26 µM

###

Molecular target: RalB Tyr82Phe mutant (Homo sapiens, UniProt P11234, Y82F)
Construct: made in house; host or cells: E. coli BL21(DE3)
Experiment: Rgl2-mediated guanine nucleotide exchange assay, RalB Tyr82Phe mutant
Format: biochemical
measuredQuantity: IC50 (µM)
// return numeric value only (unit: µM, not printed)

Some solved cases for reference:
COc1ccc(NS(=O)(=O)c2ccc(S(=O)(=O)F)cc2)cc1 [Compound 9]; 100
COc1cc(Cl)nc(NS(=O)(=O)c2ccc(S(=O)(=O)F)cc2)c1 [Compound 21]; 138
COc1cccc(NS(=O)(=O)c2ccc(S(=O)(=O)F)cc2)c1 [Compound 11]; 164
CS(=O)(=O)c1ccc(NS(=O)(=O)c2ccc(S(=O)(=O)F)cc2)cn1 [Compound 10]; 238
O=S(=O)(F)c1ccc(S(=O)(=O)Nc2ncccc2Cl)cc1 [Compound 4]; 215
CCc1cncc(NS(=O)(=O)c2ccc(S(=O)(=O)F)cc2)c1 [Compound 14]; 167

Q) Check the records and state IC50 for CC(C)Oc1cncc(NS(=O)(=O)c2ccc(S(=O)(=O)F)cc2)c1 [Compound 16]
A) 333

Q) Provide one value: measured IC50 of O=S(=O)(F)c1ccc(S(=O)(=O)Nc2cccnc2O)cc1 [Compound 3]
A) 79.3

Q) Please list IC50 recorded for the molecule CCOc1cncc(NS(=O)(=O)c2ccc(S(=O)(=O)F)cc2)c1 [Compound 15]
A) 235

###

Molecular target: RalB (Homo sapiens)
Construct: made in house; host or cells: E. coli BL21(DE3)
Sequence (P11234 12-185): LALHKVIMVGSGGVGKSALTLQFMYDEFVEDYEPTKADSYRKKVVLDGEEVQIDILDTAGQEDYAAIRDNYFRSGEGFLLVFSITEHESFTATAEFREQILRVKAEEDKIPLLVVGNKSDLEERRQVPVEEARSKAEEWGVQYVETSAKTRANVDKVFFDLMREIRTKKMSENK
Assay: Rgl2-mediated guanine nucleotide exchange assay (BODIPY-FL-GDP fluorescence), RalB wild-type
Assay type: biochemical
Conditions: IC50 at 6 h, Rgl2-mediated exchange of RalB, 6 h incubation at 4° C.
measuredQuantity: pIC50
A value of pIC50 is the negative decimal logarithm of a concentration given in moles per litre.

Q) Provide one value: measured pIC50 of `COc1cncc(NS(=O)(=O)c2ccc(S(=O)(=O)F)cc2)c1`
A) 3.82
